Recorded values, source patent US20250368619A1.

tested-on: ERα (Homo sapiens)
Construct: host or cells: MCF7
Sequence (P03372 whole entry): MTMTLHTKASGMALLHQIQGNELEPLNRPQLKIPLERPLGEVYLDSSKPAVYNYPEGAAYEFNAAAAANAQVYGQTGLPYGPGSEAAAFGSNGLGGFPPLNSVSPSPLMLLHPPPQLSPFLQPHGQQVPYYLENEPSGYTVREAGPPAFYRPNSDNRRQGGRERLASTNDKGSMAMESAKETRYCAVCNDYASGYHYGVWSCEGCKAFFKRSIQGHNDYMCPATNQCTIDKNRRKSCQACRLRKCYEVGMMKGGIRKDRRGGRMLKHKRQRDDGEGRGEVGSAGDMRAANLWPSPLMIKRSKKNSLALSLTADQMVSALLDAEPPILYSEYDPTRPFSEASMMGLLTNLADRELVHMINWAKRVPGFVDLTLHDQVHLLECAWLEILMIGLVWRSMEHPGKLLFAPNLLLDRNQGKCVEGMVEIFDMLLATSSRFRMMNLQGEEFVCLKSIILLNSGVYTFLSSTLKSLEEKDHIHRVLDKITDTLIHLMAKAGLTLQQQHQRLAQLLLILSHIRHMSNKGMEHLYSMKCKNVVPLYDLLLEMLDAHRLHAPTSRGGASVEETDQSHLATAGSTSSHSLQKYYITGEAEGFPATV
assay-name: Estrogen receptor degradation activity: breast cancer cell ERα in cell western assay in MCF7 cells
Format: cell-based
measurement-parameters: 4 hours, relative to fulvestrant 0.1 μM positive control
quantity-measured: % Degradation At 0.3 μM (%)

- smiles-entry: "OC/C=C/C1=C(c2ccc(CC3CN(CCCF)C3)cc2)c2ccc3[nH]ccc3c2CCC1"
  measured-result: 69
- smiles-entry: "N#Cc1ccccc1C1=C(c2ccc(CC3CN(CCCF)C3)cc2)c2ccc3[nH]ccc3c2CCC1"
  measured-result: 85
- smiles-entry: "Cc1c(Cl)cccc1C1=C(c2ccc(OC3CN(CCCF)C3)cc2)c2ccc3[nH]ccc3c2CCC1"
  measured-result: 91
- smiles-entry: "OCCCC1=C(c2ccc(CC3CN(CCCF)C3)cc2)c2ccc3[nH]ccc3c2CCC1"
  measured-result: 75
